From: the supplement of paper PMC4466140

Readings of SPOT peptide array binding signal intensity for the listed binders
Molecular target: ScRvs167
Test: SPOT peptide array binding signal intensity (averaged, normalized) (arbitrary units (background-subtracted, floor 0; scale differs between SH3 domains)); higher = stronger binding of the SH3 domain to the peptide
Give the value as a plain number.

Fill in the blank: the reported SPOT peptide array binding signal intensity of VNFRRIPTGPDSPPT is ____.
0.167

Fill in the blank: the reported SPOT peptide array binding signal intensity of YVRRRPRVRLEPLLS is ____.
30.8

Fill in the blank: the reported SPOT peptide array binding signal intensity of MTKTPETSPPKRPMG is ____.
7.17

Fill in the blank: the reported SPOT peptide array binding signal intensity of KWVRRPKLMTPLTFS is ____.
121

Fill in the blank: the reported SPOT peptide array binding signal intensity of LRWRHKFFLPAIAAI is ____.
1.5

Fill in the blank: the reported SPOT peptide array binding signal intensity of DDEDVPPQLPTRTKS is ____.
1980

Fill in the blank: the reported SPOT peptide array binding signal intensity of GSKSGPPPRPKKPST is ____.
3.33

Fill in the blank: the reported SPOT peptide array binding signal intensity of PSRRAPLQLPQLVNK is ____.
5.67

Fill in the blank: the reported SPOT peptide array binding signal intensity of FPGKKSPRLPHRNKK is ____.
714

Fill in the blank: the reported SPOT peptide array binding signal intensity of TKRKRPARLIFYDSK is ____.
23.8

Fill in the blank: the reported SPOT peptide array binding signal intensity of KKIRLIFTYPSTVGR is ____.
26.2

Fill in the blank: the reported SPOT peptide array binding signal intensity of TIRRRAPLSLLESHT is ____.
48.5

Fill in the blank: the reported SPOT peptide array binding signal intensity of IHTRRPSSTSQYLIR is ____.
19.8

Fill in the blank: the reported SPOT peptide array binding signal intensity of NFKRLLPRDPSEKSS is ____.
16.2

Fill in the blank: the reported SPOT peptide array binding signal intensity of RRASLFPRDPKRLRP is ____.
16.3
